Molecular target: Recombinant STAT6 protein (STAT6 (W123-T658)) (Homo sapiens)
Construct: Recombinant STAT6 protein (STAT6 (W123-T658))
Sequence (P42226 123-658): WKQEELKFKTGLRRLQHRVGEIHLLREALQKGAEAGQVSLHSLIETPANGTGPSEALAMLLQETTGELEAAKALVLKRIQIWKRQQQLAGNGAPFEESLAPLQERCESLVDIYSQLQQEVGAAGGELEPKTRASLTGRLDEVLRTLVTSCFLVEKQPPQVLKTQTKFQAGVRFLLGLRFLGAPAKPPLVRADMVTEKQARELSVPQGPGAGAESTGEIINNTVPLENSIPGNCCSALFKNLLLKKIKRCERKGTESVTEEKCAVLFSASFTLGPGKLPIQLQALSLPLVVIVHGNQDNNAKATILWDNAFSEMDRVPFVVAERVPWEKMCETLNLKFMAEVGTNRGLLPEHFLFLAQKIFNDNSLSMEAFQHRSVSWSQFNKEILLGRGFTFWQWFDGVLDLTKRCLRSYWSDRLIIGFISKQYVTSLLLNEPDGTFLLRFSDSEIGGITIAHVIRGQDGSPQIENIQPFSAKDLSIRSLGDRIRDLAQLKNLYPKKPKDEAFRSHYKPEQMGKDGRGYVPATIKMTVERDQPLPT
Assay: STAT6 Fluorescence Polarization (FP) Assay
Format: binding
Conditions: STAT6 (W123-T658) 250 nM, probe 5-FAM-Ap[…]-NH2 2 nM, 45-minute incubation; read-out: STAT6 (FP assay IC50 class)
measured_metric: IC50

O=C(N[C@H]1CCC[C@H]2CC[C@@H](C(=O)N3CC(c4cnccc4N4CCC4)C3)N2C1=O)c1cc2cc([C@@H](F)P(=O)(O)O)ccc2s1 (single isomer, unassigned) [Compound 741]
0.3 to 3 µM
O=C(N[C@H]1CCC[C@H]2CC[C@@H](C(=O)N3CC(c4cncnc4N4CCC4)C3)N2C1=O)c1cc2cc([C@H](F)P(=O)(O)O)ccc2s1 (single isomer, unassigned) [Compound 689]
0.3 to 3 µM
Cc1c(F)cncc1C1CN(C(=O)[C@@H]2CC[C@@H]3CCC[C@H](NC(=O)c4cc5cc(CP(=O)(O)O)ccc5s4)C(=O)N32)C1 [Compound 504]
3 to 30 µM
CC(F)(c1ccc2sc(C(=O)N[C@H]3CCC[C@H]4CC[C@@H](C(=O)N5CC(c6cccnc6)C5)N4C3=O)cc2c1)P(=O)(O)O (stereo partly drawn) [Compound 221]
3 to 30 µM
O=C(N[C@H]1CCC[C@H]2CC[C@@H](C(=O)N3CC(c4cnccc4N4CC[C@@H]4C(F)F)C3)N2C1=O)c1cc2cc(CP(=O)(O)O)ccc2s1 [Compound 668]
3 to 30 µM
O=C(N[C@H]1CC2(CC[C@H]3CC[C@@H](C(=O)N4CC(c5cccnc5)C4)N3C1=O)CC2)c1cc2cc(CP(=O)(O)O)ccc2s1 [Compound 216]
3 to 30 µM
O=C(N[C@H]1CCCC[C@H]2CC[C@@H](C(=O)N3CC(N4CCS(=O)(=O)CC4)C3)N2C1=O)c1cc2cc(C(F)P(=O)(O)O)ccc2s1 (stereo partly drawn) [Compound 573]
3 to 30 µM
COc1cncc([C@H]2CN(C(=O)[C@@H]3CC[C@@H]4CCCC[C@H](NC(=O)c5cc6cc([C@H](F)P(=O)(O)O)ccc6s5)C(=O)N43)C3(CC3)[C@@H]2C#N)c1 (single isomer, unassigned) [Compound 848]
0.3 to 3 µM

Provide IC50, system Recombinant STAT6 protein (STAT6 (W123-T658)) (Homo sapiens), entry O=C(N[C@H]1CCC[C@H]2CC[C@@H](C(=O)N3CC(c4cnccc4F)C3)N2C1=O)c1cc2cc(C(F)P(=O)(O)O)ccc2s1 (stereo partly drawn) [Compound 664]
0.3 to 3 µM

Check Recombinant STAT6 protein (STAT6 (W123-T658)) (Homo sapiens) data and give IC50 for O=C(N[C@H]1CCC[C@H]2CC[C@@H](C(=O)N3CC(c4cnccc4N4C[C@H]5C[C@@H]4CO5)C3)N2C1=O)c1cc2cc(C(F)P(=O)(O)O)ccc2s1 (stereo partly drawn) [Compound 694] .
0.3 to 3 µM

Report measured IC50 on Recombinant STAT6 protein (STAT6 (W123-T658)) (Homo sapiens); entry: CN(C)c1ccncc1C1CN(C(=O)[C@@H]2CC[C@@H]3CCC[C@H](NC(=O)c4cc5cc([C@H](F)P(=O)(O)O)ccc5s4)C(=O)N32)C1 (single isomer, unassigned) [Compound 634]
0.3 to 3 µM

Please report the measured IC50 for Cc1ccncc1C1CN(C(=O)[C@@H]2CC[C@@H]3CCC[C@H](NC(=O)c4cc5cc([C@@H](F)P(=O)(O)O)ccc5s4)C(=O)N32)C1 (single isomer, unassigned) [Compound 755] tested on Recombinant STAT6 protein (STAT6 (W123-T658)) (Homo sapiens).
3 to 30 µM

Give measured IC50 for CC[C@H]1CC[C@H](NC(=O)c2cc3cc(C(F)P(=O)(O)O)ccc3s2)C(=O)N2[C@H](CC[C@H]2C(=O)N2C[C@@H](C#N)[C@H](c3ccccc3)C2)C1 (single isomer, unassigned) [Compound 237] (Recombinant STAT6 protein (STAT6 (W123-T658)) (Homo sapiens)).
≤ 0.3 µM

Give Recombinant STAT6 protein (STAT6 (W123-T658)) (Homo sapiens) IC50 for the following compound: Cn1cc(C2CN(C(=O)[C@@H]3CC[C@@H]4CCC[C@H](NC(=O)c5cc6cc(C(F)P(=O)(O)O)ccc6s5)C(=O)N43)C2)c(C#N)n1 (stereo partly drawn) [Compound 734]
0.3 to 3 µM

Please report the measured IC50 for O=C(N[C@H]1CCCC[C@H]2CC[C@@H](C(=O)N3C(=O)N(c4cccnc4)C(=O)C34CC4)N2C1=O)c1ccc2ccc(CP(=O)(O)O)cc2c1 [Compound 893] tested on Recombinant STAT6 protein (STAT6 (W123-T658)) (Homo sapiens).
0.3 to 3 µM

State measured IC50 of the compound Cc1cccnc1N1C[C@H](NC(=O)[C@@H]2CC[C@@H]3CCCC[C@H](NC(=O)c4cc5cc(C(F)P(=O)(O)O)ccc5s4)C(=O)N32)[C@@H](F)C1 (stereo partly drawn) [Compound 555] with Recombinant STAT6 protein (STAT6 (W123-T658)) (Homo sapiens).
3 to 30 µM

Look up and report measured IC50 (Recombinant STAT6 protein (STAT6 (W123-T658)) (Homo sapiens)) for the following compound: O=C(N[C@H]1CCC[C@H]2CC[C@@H](C(=O)N3CC(c4ncncc4F)C3)N2C1=O)c1cc2cc(C(F)P(=O)(O)O)ccc2s1 (stereo partly drawn) [Compound 583]
3 to 30 µM

Give IC50 only, for Cc1cc(C#N)ccc1C1CN(C(=O)[C@@H]2CC[C@@H]3CCCC[C@H](NC(=O)c4cc5cc(C(F)(F)P(=O)(O)O)ccc5s4)C(=O)N32)C1 [Compound 1110] , using Recombinant STAT6 protein (STAT6 (W123-T658)) (Homo sapiens) data.
0.3 to 3 µM

Would you please give the reported IC50 of COc1ccncc1C1CN(C(=O)[C@@H]2CC[C@@H]3CCCC[C@H](NC(=O)c4cc5cc(C(F)P(=O)(O)O)ccc5s4)C(=O)N32)C1 (stereo partly drawn) [Compound 236] with Recombinant STAT6 protein (STAT6 (W123-T658)) (Homo sapiens)?
3 to 30 µM

State recorded IC50 with Recombinant STAT6 protein (STAT6 (W123-T658)) (Homo sapiens), entry O=C(N[C@H]1CCC[C@H]2CC[C@@H](C(=O)N3CC(c4cnccc4F)C3)N2C1=O)c1cc2cc([C@H](F)P(=O)(O)O)ccc2s1 (single isomer, unassigned) [Compound 600] , no comment.
0.3 to 3 µM

Please indicate recorded IC50 of COC1(c2cncnc2C)CN(C(=O)[C@@H]2CC[C@@H]3CCC[C@H](NC(=O)c4cc5cc(C(F)(F)P(=O)(O)O)ccc5s4)C(=O)N32)C1 [Compound 721] measured with Recombinant STAT6 protein (STAT6 (W123-T658)) (Homo sapiens).
3 to 30 µM
